Measured self-splicing fitness (ln), listed per entry for reference.
assay: self-splicing fitness, log relative to wild type (ln ratio); higher = more splicing; Tetrahymena group I intron in knt gene, E. coli kanamycin selection, DiMSum; sequences stand for … in CUCUCU…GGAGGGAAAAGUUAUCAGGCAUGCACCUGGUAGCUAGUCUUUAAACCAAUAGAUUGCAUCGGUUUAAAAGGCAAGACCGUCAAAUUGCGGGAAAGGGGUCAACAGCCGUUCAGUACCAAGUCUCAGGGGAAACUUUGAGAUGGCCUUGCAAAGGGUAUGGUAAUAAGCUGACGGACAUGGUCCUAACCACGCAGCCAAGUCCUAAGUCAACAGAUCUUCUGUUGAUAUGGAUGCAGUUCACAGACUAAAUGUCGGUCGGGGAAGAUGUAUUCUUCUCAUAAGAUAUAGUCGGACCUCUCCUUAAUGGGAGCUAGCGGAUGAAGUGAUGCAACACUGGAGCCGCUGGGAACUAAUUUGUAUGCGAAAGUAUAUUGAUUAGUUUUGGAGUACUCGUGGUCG; settings: 30 °C;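 further: selection with 25 µg/mL kanamycin versus none on LB agar overnight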
Write the value as a bare number.

A selection of reference data follows.
What self-splicing fitness (ln) value was documented for this sequence, AAUUAGCAAUAUUACGAAUU ?
-2.7

Now try UAAUAGCAAUAUUACGAUAU .
-3.99

Proceed to CAAUAGCAAUAUUACGAGAC
-4.17

Please do the same for GGUCAGCAAUAUUACGGUAG as well.
-2.15

Repeat for the following sequence: AAAUAGCAAUAUUACGUGCG
-0.841

Further cases:
Which measured self-splicing fitness (ln) value corresponds to CACAAGCAAUAUUACGCGAU ?
-3.57

Same question for CUACAGCAAUAUUACGAGUA please.
-3.39

Queued: GGGCAGCAAUAUUACGGCCA
0.461
